Assay: soluble on expression in E. coli; label from the status in PepcDB or PDB records
experimentalEndpoint: soluble on expression in E. coli

• MSLIIRLNFITKYKVDMKRSHLSLIACLLASTQAYALSTDREQPVYIDSDSQQLDMKSNRVTFLGDVKLKQGSININADKLIVIRNAENGKIEEIEGYGNVATFSQLTDEGKTLYGEAKELYYKVRDDELVMINKAMLSQDDSEIRGSKIRYKISLQKLIADSDGKGRVSTVLQPQAIQEEGHHHHHH = soluble
• MMAKDFYSAIEDRRSIYAISKEQVVSDEKIQEVIYHAVKHTPSAFNSQSARVVVLLGEQHDKLWDITKETLRKIVPENNFAPTEEKMNAFKSGYGTVLYFEDSEVVESLQANFALYKDNFPTWSQQSSGMLQFAIWTALEIEGFGATLQHYNPLIDEEVRKEWDVPANWKLIAQMPFGKPVVQAGEKEFQPLENRVKIYKLEHHHHHH = soluble

----------
Test: soluble on expression in E. coli; label from the status in PepcDB or PDB records
experimentalEndpoint: soluble on expression in E. coli

• MCRHCHFLSAIAPVSGTNKSQPGNKWDMVLLVPFDGSALSKAALTRAMEFADYRDEDITALSVIPDDAAYAREHGWLDADEAFTVEAVADRMREQAESVAPAASFRYEVPEDVSSMASTTTNITRTIREVAHEEEASIVFIGSENAGRVSTPVCSVGSPVSEDPEYDVHIVRHP = not soluble
• MGSDKIHHHHHHMSDRKEDLERQINLTFAFLSANSYSRKFLTQVWIRDNVGDYKGLTDTAFRKKLQRDLAYLRRVGVPIEQFTVTSGIAEGQQAYRLAQDSYKLPEVEFTPDEAAVLGMAGEMGHNQELGAFARSGWTKLAAGGAQRDLSTSTALTNAGDLGSLSAKTLDAIIKARQLGKQISFEYRRAPKDAPSLRHMDPWGLVPERDRIYLVGFDLDRQEARTFRITRVRNINLGADATHPMPAGTNLQDMVRAQLRRKSVLIDATLRITPGRAVELRAAGVETSDGAWFLEDVDRDWLVRTAAAHAPEALVIEPKDVIDDVIALLRKVENEVV = not soluble
• MIGYEFFVSEKLENCKYKYIKAINDYIKQEKSHIIGIDLGKYHYLTASNIDRSFVFVDKHNTLFHLFRKYERRIANKQYDNSEAYSKLKTGLKSHINQVVNEMLEQTSNRFQTVFALDDHGSSHLSFPSLVFDLTYFAIKQRKNESDEILIVDESFTSIECPICHDRNQYNRTNKNKFKCTKCGFIHQNNDIVAASNIAKKGQLLNSLEHHHHHH = not soluble
• GHMAESQALSDDIGFLLSRVGGMVLGAVNKALVPTGLRVRSYSVLVLACEQAEGVNQRGVAATMGLDPSQIVGLVDELEERGLVVRTLDPSDRRNKLIAATEEGRRLRDDAKARVDAAHGRYFEGIPDTVVNQMRDTLQSIAFPTFVEGS = soluble
• MGSDKIHHHHHHMENQNHAFNYAYLLKQVKARVLLAQKKAIYTANEEMLSMYWDIGKLLSESQKQIGWGNNALEKLANDLKNDYPEMKGFSVRNCQFMIQFYNEYNQQLTNTKRAVSYLNNNEIVLPISKLGWSHNITLMQRTKDIKARYWYMIQCLKNGWSRDFLIEAIKQDYYHSHGALASNFDTTLPEIQAKQVKETLKDPYIFDMLTFTEEYDERDIELGLIKHIEKFLVEMGAGFAFMGRQYHIEVSEKDFYIDILMYNAFMHRYLVVELKRGEFQPEYIGKLNFYCSAVDDILCREGDNPTIGLLLCQNKDQIMAEYALRDVHKPIGISDYELGQALPKDIKSGLPSIEELENKLSRDLQDIDNKE = not soluble
• MAHHHHHHMAANGCFIAALIARTHDRLPLCSYTDDNYSNANVIRQQEQRIVERMESPAGGTDRAAAKGSYYESFDHKDNVYFAFQDAATDLTLVVAVNKLLLRNSGDINGMNKLACGLLDLIFSEFIQMYTPAEIGAPNVRAYQFIKFDATLRKCVTRIMQQDRTTGDRIV = not soluble
• MSSTKSIPADVIAKLQKFDELITKLEDAVEEVDVGVEKHFERSAHEMALVDTMSMFLMDSLMWAVQATKGGGADKNDDLLIDLARTKRMTADMKEINLRQDAPRINKQAAANFVRNALWEQPEQGESSKKAAK = not soluble
• MAHHHHHHMKSSSKDLCKYFCRKCNNFIYYNEACELIYKKIYPDYYKIYYNKYEFDKKTKGKKEVNPKQYDNLYRQLYNNGLCGVNKQRNDFLNKDNINNILLFLNKGSIQCNKCNHIHMWYMK = soluble
• MILLSKQTPLGAGRHRKCYTHPDNARRCIKVIYNRDHGGDKEIRRELSYYAHLSRYLTDWSAIPRYYGTVETDCGTGYVYDMITDFNGAPSITLTEFAAQCRYEEDVAVLRRLLKKLKRYLLDNHIVTMSLKPQNILCQRISESEVVPVVCDNLGESTFIPLATWSTWCCERKLERVWQRFIAQPALAVALERDAQPKDKKRLALTSHEALEHHHHHH = not soluble
• SLDEITAVVRTAARELVSADGATFVLRENGNCFYADEDAIAPLWKGLRFPLERCISGWVMLNRQAAVIEDIYQDQRIPVEAYRPTFVQSLAMVPIRGEDPIGAIGTYWARRH = not soluble
• MGKVLVIYDTRTGNTKKMAELVAEGARSLEGTEVRLKHVDEATKEDVLWADGLAVGSPTNMGLVSWKMKRFFDDVLGDLWGEIDGKIACAFSSSGGWGGGNEVACMSILTMLMNFGFLVFGVTDYVGKKFTLHYGAVVAGEPRSEEEKEACRRLGRRLAEWVAIFVDGRKELLEKIRKDPARFVD = soluble
• MSLATFEKQKIEQAIGSIQGALGVLEKGQMTEIMPPKRIQALPIQQNVDTPEAINAFASMITEYSEMTKISDGPAVKMEEAEDGFILSIPSELLFESGSATITNKEGILFLKRTALEINKLSNDMHIKVIGHTDNDRLRPTATYKDNWELSIARGVNVAKMLLEERVNPARISAGGNGEFDPVASNATPEGKAKNRRVDLYFFSVSKNEEEIKKSQKNSEGHHHHHH = soluble
• MGSDKIHHHHHHMDTLTRIRAFIDVVEAEGFSAAARKTGRSKALLSKYVRELEDELGALLLNRTTRQFSMTEAGHTYYRSAADILKEIDNLADLVRENNVGISGKIRITVPRSFTDAEVGQSLIDFALQHPDLSIEIVAEDRFVDLIEEGFDLAIRVTKLEDSGMIARKLADFRSYACASPVFLEKYGPLTHPQDLSKVPVLIDTNTRGHNSLRLRQPDGEAFTVNISGPLEVNSPQTTLRGALSGLGIALLPDFVARRHIESGALISIFEDYMPSGSGIYAVYPHRRYLPAKVRALVDFMHNWFKRNGTCQPKQGTPPSE = not soluble
• MDKIYIHDMEFYGYHGVFPEENKLGQRFKVDLTVELDLKRAGESDDLEHSVNYGELFELCRKVVEDRTYKLVESIAENIATDILKQYESISRCTIKVIKPDPPIPGHYRAVAVEITRERP = not soluble

----------
Assay: soluble on expression in E. coli; label from the status in PepcDB or PDB records
experimentalEndpoint: soluble on expression in E. coli

• MIVSMIAALANNRVIGLDNKMPWHLPAELQLFKRATLGKPIVMGRNTFESIGRPLPGRLNIVLSRQTDYQPEGVTVVATLEDAVVAAGDVEELMIIGGATIYNQCLAAADRLYLTHIELTTEGDTWFPDYEQYNWQEIEHESYAADDKNPHNYRFSLLERVK = soluble
• MMKTLSSGNCTLSVPAKNSYRMVVLGASRVGKSSIVSRFLNGRFEDQYTPTIEDFHRKVYNIRGDMYQLDILDTSGNHPFPAMRRLSILTGDVFILVFSLDNRESFDEVKRLQKQILEVKSCLKNKTKEAAELPMVICGNKNDHGELCRQVPTTEAELLVSGDENCAYFEVSAKKNTNVDEMFYVLFSMAKLPHEMSPALHRKISVQYGDAFHPRPFCMRRVKEMDAYGMVSPFARRPSVNSDLKYIKAKVLREGQARERDKCTIQLEHHHHHH = soluble

----------
Assay: soluble on expression in E. coli; label from the status in PepcDB or PDB records
experimentalEndpoint: soluble on expression in E. coli

* GPGSMSSFAPNVKICEDISHISSAARDIILAAIDARVDKSAPVVLALSGGSTPKRLYEELHEKDLTLLQQHAVQFILGDERLVATDDEQSNFSMATKALLRDVPISDVIAIEPSAALATSKDEKGGVDGAWAVAQDYEKKLRNRLPCTQVNGTDMSVPIVDIVLLGFGADGHTASIFPDSVAATDESHVVSVSFPSPTMNPKVWRVTLSKTVIQHAKHVVVLACGKDKNWVVHGVLAEAPTGPLPVSRFLRECRGSVTMLLDAGSGEGLSA | soluble
* LQTLPPVQLAQKYFQIFSEEKDPLWQDPCEDKRHKDIWSKEKTCDRFPKLLIIGPQKTGTTALYLFLGMHPDLSSNYPSSETFEEIQFFNGHNYHKGIDWYMEFFPIPSNTTSDFYFEKSANYFDSEVAPRRAAALLPKAKVLTILINPADRAYSWYQHQRAHDDPVALKYTFHEVITAGSDASSKLRALQNRCLVPGWYATHIERWLSAYHANQILVLDGKLLRTEPAKVMDMVQKFLGVTNTIDYHKTLAFDPKKGFWCQLLEGGKTKCLGKSKGRKYPEMDLDSRAFLKDYYRDHNIELSKLLYKMGQTLPTWLREDLQNTR | soluble
